Source of measurements: PubChem BioAssay (NCI)

tested on: A498 renal; test: NCI tumour cell line growth inhibition, 48 h; in the data active = GI50 below about 0.43 µM; inactive = the rest
Permitted responses: 1 (yes) for active, 0 (no) for inactive

- molecule: "S=P(N1CC1)(N1CC1)N1CC1"
  cat: "0 (no)"
- molecule: "Cc1cnc(C(=O)Nc2nc3ccc(S(=O)(=O)Nc4ccc(C5(C(F)(F)F)CC5)cc4)cc3[nH]2)cn1"
  cat: "1 (yes)"
- molecule: "CCN1CCN(CC(=O)N2c3cccc4cccc(c34)N(C(=O)CN3CCN(CC)CC3)C2c2cn(-c3ccccc3)nc2-c2cccc([N+](=O)[O-])c2)CC1"
  cat: "0 (no)"
- molecule: "Cc1cc(N2CCOCC2)cc2[nH]c(-c3c(NC[C@@H](O)c4cccc(Cl)c4)cc[nH]c3=O)nc12"
  cat: "1 (yes)"
- molecule: "CCCCCCCc1cc2c3c(nc4ccccc42)C(=O)c2cccnc2-c3n1"
  cat: "0 (no)"

Then there is this molecule:
Task item: Fill in: this test's call for `Cc1ccc(Cl)cc1NC(=O)c1sc2nc3c(cc2c1N)C(=O)CCC3` is ___
Reply: 0 (no)

----------
system: A549 NSCLC; test: NCI tumour cell line growth inhibition, 48 h
This section presents compounds with their documented TGI values.

Use the examples below as a reference point.
- compound: "OCCNCNc1nc(NCNCCO)nc(N(CNCCO)CNCCO)n1"
  TGI: "> 78.2 µM"
- compound: "Cn1cc(C(=O)C[n+]2ccccc2)c2ccccc21"
  TGI: "> 100 µM"
- compound: "CCNC(=O)O[C@H]1CN[C@H](C#Cc2cc3ncnc(Nc4ccc(OCc5cccc(F)c5)c(Cl)c4)c3s2)C1"
  TGI: "> 25 µM"

Task item: State, in one line, measured TGI of `COc1cc(Nc2ncc(F)c(Nc3ccc4c(n3)N(COP(=O)(O)O)C(=O)C(C)(C)O4)n2)cc(OC)c1OC`
Reply: > 26.8 µM

Task item: Give the value of TGI reported for the following: Cc1cc(Cl)ccc1NC(=O)CC1SC(=Nc2ccccc2Cl)NC1=O (stereo unspecified)
Reply: > 100 µM

Task item: Indicate the recorded TGI value for this compound: CC(=O)C1=C(O)CC2CC3c4[nH]c5ccccc5c4CCN3CC2C1 (stereo unspecified)
Reply: > 100 µM

Task item: Specify TGI for `CO/N=C(\C)c1cccc(Nc2c3ccccc3nc3occc23)c1` and stop.
Reply: 57.3 µM

Task item: Provide TGI value for the following compound: `COI1NC(=O)c2ccccc21`
Reply: > 100 µM

Task item: Identify measured TGI corresponding to `O=C1C(Cl)=C(NCc2ccco2)C(=O)c2ccccc21`
Reply: 31.1 µM

Task item: Identify TGI associated with the compound `CC(C)OP(=O)(NC(=S)c1ccccc1)OC(C)C`
Reply: > 100 µM

Task item: Name the recorded TGI of the compound listed here: `O=C(OC[C@H]1O[C@H](OC(=O)c2cc(O)c(O)c(OC(=O)c3cc(O)c(O)c(O)c3)c2)[C@H](OC(=O)c2cc(O)c(O)c(OC(=O)c3cc(O)c(O)c(O)c3)c2)[C@@H](OC(=O)c2cc(O)c(O)c(OC(=O)c3cc(O)c(O)c(O)c3)c2)[C@@H]1OC(=O)c1cc(O)c(O)c(OC(=O)c2cc(O)c(O)c(O)c2)c1)c1cc(O)c(O)c(OC(=O)c2cc(O)c(O)c(O)c2)c1`
Reply: > 25 µM

----------
system: HCT-15 colon; assay: NCI tumour cell line growth inhibition, 48 h
endpoint_name: TGI

Example entries begin here.
- molecule: "O=c1/c(=C/c2ccc(-c3ccc(Cl)cc3Cl)o2)sc2n1[C@@H](c1ccc(Cl)cc1)C=C(c1cc(F)c(Cl)cc1Cl)N=2"
  result: "> 100 µM"
- molecule: "N#C/C(=C\\c1ccc(Br)cc1)n1nnc2ccc(F)cc21"
  result: "1.78 µM"

Task item: Quick one: give measured TGI for `CN(C)c1ccc(/C=c2\sc3nc4ccccc4n3c2=O)cc1`
Reply: > 100 µM

Task item: Using the record for CC(=O)Nc1ccc(C2SCc3nc4ccccc4n32)cc1 (stereo not drawn) , state its measured TGI.
Reply: > 100 µM

Task item: Provide one value: measured TGI of Cn1c2ccccc2c(=O)c2cccc(C(=O)NC(CCC(N)=O)C(=O)O)c21 (stereo not drawn)
Reply: > 100 µM

Task item: Name the recorded TGI of the item `CSc1nc(SC)c2c(CO)c(Br)n(Cc3ccccc3)c2n1` in your answer.
Reply: > 100 µM

Task item: Recall and state the measured TGI for `O=[N+]([O-])c1cc(-c2nc(-c3ccccc3)c(-c3ccccc3)[nH]2)c(O)c([N+](=O)[O-])c1` .
Reply: 33.6 µM

----------
tested on: OVCAR-5 ovarian; experiment: NCI tumour cell line growth inhibition, 48 h
Listing of entries alongside the reported TGI.

Consider the worked cases shown below.
- compound: "O=C(O)C1CC(O)CN1 (stereo not drawn)"
  TGI: "> 100 µM"
- compound: "COc1ccc(C2ON(c3cccc(C)n3)CC=C2C)cc1 (stereo not drawn)"
  TGI: "> 100 µM"
- compound: "CC(C)NC(=O)CN1CCN(c2c(O)c3c(c(O)c2Cl)C(=O)C=CC3=O)CC1"
  TGI: "6.54 µM"
- compound: "O=C(/C=C/c1ccc(C(F)(F)F)cc1)c1ccc(Nc2nc(NCCO)nc(Nc3ccc(Cl)cc3)n2)cc1"
  TGI: "18.8 µM"
- compound: "COc1cccc(NC(=O)/C(Cc2nc3ccccc3nc2C)=N/NC(=O)C[n+]2ccccc2)c1"
  TGI: "> 100 µM"

Read the next record carefully.
Task item: Please give measured TGI of the following entry: `Oc1ccc(-c2nc3ccc(Cl)cc3s2)cc1`
Reply: 33 µM

----------
test system: PC-3 prostate; test: NCI tumour cell line growth inhibition, 48 h; in the data active = GI50 below about 0.43 µM; inactive = the rest
API: response.call in active, inactive

- compound: "Cc1cc(N2CCOCC2)cc2[nH]c(-c3c(NC[C@@H](O)c4cccc(Cl)c4)cc[nH]c3=O)nc12"
  cat: "inactive"
- compound: "Cc1ccc(Cl)cc1NC(=O)c1sc2nc3c(cc2c1N)C(=O)CCC3"
  cat: "inactive"
- compound: "CC(C)=CC1=C2C3=C(C(=O)C4(O)Oc5c(C)c6c7c(c5OC24C)[C@@H](C)CC[C@@H]7[C@@H](C)C[C@H]6C=C(C)C)C(C)CCC3C(C)C1 (some centres undefined)"
  cat: "inactive"
- compound: "OCC#Cc1ccccc1C#CCCCCCC#Cc1ccccc1C#CCO"
  cat: "inactive"
- compound: "O=C1C(=O)c2cccnc2-c2ncccc21"
  cat: "active"

Task item: State the result this test recorded for `O=C1C(Cl)=C(NCc2ccco2)C(=O)c2ccccc21` .
Reply: inactive

Task item: Answer briefly: the call reported for `COc1cc(-c2nc(SCCC(C)C)nc(Nc3ccc(S(N)(=O)=O)cc3)c2C#N)cc(OC)c1OC` in this assay.
Reply: inactive

Task item: Can you look up the reported call for `CN(C)CCCNC(=O)c1cc(NC(=O)c2cc(NC(=O)CCNS(=O)(=O)c3ccc4c(c3)C(=O)c3ccccc3C4=O)cn2C)cn1C` for me?
Reply: inactive

Task item: Query: recorded result category for `CCNC(=O)O[C@H]1CN[C@H](C#Cc2cc3ncnc(Nc4ccc(OCc5cccc(F)c5)c(Cl)c4)c3s2)C1` in this test
Reply: inactive

----------
tested on: TK-10 renal; test: NCI tumour cell line growth inhibition, 48 h
*1 amine or outer side, *2 acyl side, *3 side chain or, on linkers, in order; H or OH if unused. Where a SMILES comes first, the peptide text is derived from it. [ ]: non-standard residue; d: D form. X32 = C[C@H](N[*:1])C(=O)C(C)(C)C(=O)[*:2]; Hmpa(2S,3S) = CC[C@H](C)[C@H](O)C(=O)O; NMeY = CN[C@@H](Cc1ccc(O)cc1)C(=O)O; NMeL = CN[C@@H](CC(C)C)C(=O)O; NMeV = CN[C@H](C(=O)O)C(C)C; βAla = NCCC(=O)O
Below: a set of entries, each annotated with reported log10(TGI).
Record value = log10 of TGI given in µM.

// below: answered compounds
- compound: "N#C/C(=C\\c1ccc(Br)cc1)n1nnc2ccc(F)cc21"
  endpoint_name: "log10(TGI)"
  readout_number: 0.75
- compound: "COc1cc(Nc2ncc(F)c(Nc3ccc4c(n3)N(COP(=O)(O)O)C(=O)C(C)(C)O4)n2)cc(OC)c1OC"
  endpoint_name: "log10(TGI)"
  readout_number: 0.49
- compound: "O=c1c(-c2ccccc2)coc2cc(OC/C(=N/O)c3ccccc3)ccc12"
  endpoint_name: "log10(TGI)"
  readout_number: 1.58
- compound: "CC[C@H](C)[C@@H]1OC(=O)CCNC(=O)[C@@H](C)NC(=O)C(C)(C)C(=O)[C@H](C)NC(=O)[C@H](Cc2ccc(OC)cc2)N(C)C(=O)[C@H](C(C)C)N(C)C(=O)CNC(=O)[C@H](CC(C)C)N(C)C(=O)CNC1=O (cyclo(G[NMeL]G[NMeV][NMeY](Me)[X32][dA][βAla][Hmpa(2S,3S)]))"
  endpoint_name: "log10(TGI)"
  readout_number: 0.90
- compound: "CC(C)(C)c1cc(O)ccc1O"
  endpoint_name: "log10(TGI)"
  readout_number: 1.35

Task item: Report log10(TGI) from TK-10 renal testing of `O=C1C[C@@H]2/C(=C(O)\C=C\c3ccccc3)C(=O)C=C[C@@H]2O1`
Reply: 0.88

Task item: Answer with log10(TGI) of `COc1ccc2nc(-c3ccc(O)cc3)sc2c1` measured for TK-10 renal.
Reply: 1.85
